The reported measurements were obtained from the supplement of paper PMC11780869.

What cleaved RNA product abundance was measured for each of the following?
system: Bacillus subtilis; assay: cleaved RNA product abundance (RNA/gDNA barcode ratio) relative to median wild-type variant (ratio to wild type); higher = more accumulation of the downstream cleavage product; conditions: experiment (reporter, strain, medium): exp 4a: truncated aprE reporter, strain BJT201 with 2% xylose (RNase J1 expressed); cleavage site: cggR-gapA (positions -7 to +36 mutated)

Need cleaved RNA product abundance for each of these sequences.
1. ACAGACGAAGGAGCCGCAAAGAAGTTATTAAGGGATGAATAATCCCTCAATATAAACCTCTCTCACTTATTTAAA
2. ACAGACGAAGGAGCCGCAAAGAAGTTATTAAGGTATGAATAATCCCGCAATATAAATATCTCTCACTTATTTAAA
3. ACAGACGAAGGAGCCGCAAATAAGTTATTAAGGGATGAATAATCTCTCAATATAAATATCTCTCACTTATTTAAA
4. ACAGACGAAGGAGCCGCAAAGAAGTTATTAACGGATGAATAATCCCTCATTATAAATATCTCTCACTTATTTAAA
5. ACAGACGAAGGAGCCGCAAAGATTTTATTAAGGGATGAATAATCCCTCAATATAAATATCTCTCACTTATTTAAA
6. ACAGACGAAGGAGCCGCAAAGAAGTTATTAAGGGATGAATAATCCCTCAACATAAAAATCTCTCACTTATTTAAA

**Result**
0.171
0.0533
0.758
0.141
0.974
0.234

Need cleaved RNA product abundance for each of these sequences.
1. ACAGACGAAGGAGCCGCAAAGAAGTTCTTAAGAGATGAATAATCCCTCAATATAAATATCTCTCACTTATTTAAA
2. ACAGACGAAGGAGCCGCAGAGAAGTTATTAAGGGATGAATAATCCCTCAATATAAATAACTCTCACTTATTTAAA
3. ACAGACGAAGGAGCCGCAAAGAAGTTATTCAGGGATTAATAATCCCTCAATATAAATATCTCTCACTTATTTAAA

**Result**
[0.117, 0.451, 1]

Need cleaved RNA product abundance for each of these sequences.
1. ACAGACGAAGGAGCCGCAAAGAAGTTATTAAGGGATTAATAATCGCTCAATATAAATATCTCTCACTTATTTAAA
2. ACAGACGAAGGAGCCGCAAAGAAGTTATTAAGGGATGAAAAATCCGTCAATATAAATATCTCTCACTTATTTAAA

**Result**
1. 0.0904
2. 0.355

Need cleaved RNA product abundance for each of these sequences.
1. ACAGACGAAGGAGCCGCAAAGAAGTTATTAAGAGATGAATAATCCCTCAATATAAATGTCTCTCACTTATTTAAA
2. ACAGACGAAGGAGCCGCAAAGAAGTTATTAAGGGATGAATAATCCCTCAATATAAATGTTTCTCACTTATTTAAA
3. ACAGACGAAGGAGCCGCAAAGAAGTTATTAACGGATGAATAATCCCTCAATATAAATGTCTCTCACTTATTTAAA
4. ACAGACGAAGGAGCCGCAAAGAAGTTATTAAGGGATGAATAATCCCACCATATAAATATCTCTCACTTATTTAAA

**Result**
1: 0.0916; 2: 0.369; 3: 0.0543; 4: 0.228
